- Target or test system: AVR1674 (LFG2 3F3:3H9:2C10:4B10)
- Assay summary: biolayer interferometry (Octet), follow-up experiment, 4-point titration of mAb LFG2 against the peptide
Ends that are not written are not given here.
Observation type: pKd
Keep in mind that pKd stands for -log10 of concentration in molar terms.

Form field pKd, entry TFKDEIGGGSK-biotin […-biotin (SEQ ID NO: 25)] : 8.00
